tested on: EKVX NSCLC; experiment: NCI tumour cell line growth inhibition, 48 h
In this section, each of the compounds is paired with its reported TGI.

compound	target of assay	readout name	value reported
N#CNc1nc(N)c(-c2ccc(Cl)cc2)c(C(=O)Nc2nccs2)n1	EKVX NSCLC	TGI	> 100 µM
N[C@H](COCc1ccccc1)c1ccccc1	EKVX NSCLC	TGI	> 100 µM
O=C1C(OCCOc2ccccc2)=C(OCCOc2ccccc2)C(=O)c2ccccc21	EKVX NSCLC	TGI	> 100 µM

## Input What TGI value was documented for this compound, CNNC(=NS(=O)(=O)c1cc(C#N)c(NNC)cc1S)NNC ?
## Output > 10 µM

## Input Recorded TGI of N#CC1(C#N)C(c2ccccc2)C=CC12OCCCO2 (centres undefined) , please.
## Output > 100 µM

## Input # TGI lookup, item COc1cc(C(=O)c2cc(C)c3[nH]c4ccc(O)cc4c3c2C)cc(OC)c1OC
## Output > 100 µM

## Input So what does the record say about TGI for Cc1cc(=O)c2c(O)cc3c(c2o1)CC=C(COC1OC(COC2OC(CO)C(O)C(O)C2O)C(O)C(O)C1O)CO3 (centres undefined) ?
## Output > 100 µM

## Input What does the data say about its TGI? Entry: C=CCc1cc(Nc2c3ccc(Cl)cc3nc3ccc(OC)cc23)cc(CN(CC)CC)c1O
## Output 11.1 µM

## Input Request the reported TGI associated with COc1ccc(CNc2cc(=O)n(C)c(=O)[nH]2)cc1
## Output > 100 µM
